Tested on: D9-HASM cells
ASSAY DETAILS: [Ca2+]i stimulation screening assay (Fluo-4) in D9-HASM cells
Format: cell-based, human
ASSAY SETUP: Homo sapiens, Fluo-4, mean±SE from 4-8 experiments, read-out: EC50 ([Ca^2+]i stimulation)
Method: Cultured D9 telomerase reverse transcriptase immortalized HASM (D9-HASM) cells were utilized for the [Ca^2+]i screening assays. Cells were seeded onto 96 well plates and loaded with Fluo-4 direct. The [Ca^2+]i responses to multiple concentrations of potential agonists were determined as a measure of receptor activation. Control cells were exposed to the non-specific ionophore ionomycin at 2.0 μM (a maximal effective concentration, FIG. 4). […]
READOUT TYPE: EC50 (µM)
Quick note: give the figure in µM, leave out the unit.

Below: 4 compounds and their reported EC50.
COMPOUND	READOUT TYPE	UNIT OF MEASUREMENT	MEASUREMENT
c1cnc2c(c1)c1nccnc1c1cccnc12 [T5-14, Pyrazino[2,3-f][1,10]phenanthroline]	EC50	µM	147
c1cnc2c(c1)ccc1ncccc12	EC50	µM	24.9
Cc1c(C)c2cccnc2c2ncccc12	EC50	µM	2.05
O=C1C(=O)c2cccnc2-c2ncccc21	EC50	µM	0.12

Given item O=[N+]([O-])c1cc2cccnc2c2ncccc12 , the value recorded as its EC50 is 36

The compound Cc1ccnc2c1ccc1c(C)ccnc12 showed EC50 equal to 1.39

// field: EC50; key: Brc1cc2cccnc2c2ncccc12 ; value = 4.35

Record summary for Cc1cc2cccnc2c2ncccc12 : reported EC50 = 12.1

----------
Tested on: D9-HASM cells
ASSAY DETAILS: [Ca2+]i stimulation screening assay (Fluo-4) in D9-HASM cells
Format: cell-based, human
ASSAY SETUP: Homo sapiens, Fluo-4, mean±SE from 4-8 experiments, read-out: EC50 ([Ca^2+]i stimulation)
pEC50: −log10 of the molar value.
Mark Y for reported pEC50 of 5 or greater; mark N for anything smaller.

COMPOUND	CATEGORY LABEL
Cc1ccc2ccc3ccc(C)nc3c2n1	N
Nc1cc2cccnc2c2ncccc12	Y
O=C1C(=O)c2ccccc2-c2ccccc21	Y

Exercise: Evaluate c1cnc2c(c1)ccc1cccnc12 [T5-1, 1,10-Phenanthroline, reference compound] : pEC50 at minimum 5?
Solution: N

Exercise: Given C=C(C)c1c(C(=C)C)c2cccnc2c2ncccc12 , state whether its pEC50 is at least 5.
Solution: N

Exercise: Given CCc1c(CC)c2cccnc2c2ncccc12 , state whether its pEC50 is at least 5.
Solution: Y

Reference source: patent US12257248B2
